# Method: Rat PK study #1 (Compound A PO, methylcellulose vs propylene glycol formulation)
# Format: in vivo, Lewis rats
# Setup Conditions: male, Lewis, rat, plasma, po, 10 mg/kg, Lewis rats, PO 10 mg/kg, propylene glycol/Vitamin E TPGS/water formulation, 1 h, mean of 3 animals
Readout Label: concentration at 1 h (ng/mL)
One number for each entry, in ng/mL.

// returns reported concentration at 1 h for input Cn1cc(-c2ccccc2)c(-c2cn(C)c(=O)c3[nH]c(-c4cnn(C(F)(F)F)c4)cc23)cc1=O
268

---

# Method: CIA study: pharmacokinetics / plasma concentration after oral administration
# Type: in vivo, Lewis rats
# Setup Conditions: Lewis, rat, plasma, po, 3 mg/kg, oral 3 mg/kg, day 21, 4 h, individual test subjects; read-out: Plasma concentration
Readout Label: concentration at 4 h (ng/mL)
One number for each entry, in ng/mL.

# get_value(readout='concentration at 4 h', item= Cn1cc(-c2ccccc2)c(-c2cn(C)c(=O)c3[nH]c(-c4cnn(C(F)(F)F)c4)cc23)cc1=O )
48.3

FYI, the data here is from patent US20260217701A1.
